# Subject of test: modified (47 kDa) 6-phosphofructo-1-kinase (PFK-M), sfPFK-M fragments (Homo sapiens)
# Sequence (P08237 1-443 limits assumed): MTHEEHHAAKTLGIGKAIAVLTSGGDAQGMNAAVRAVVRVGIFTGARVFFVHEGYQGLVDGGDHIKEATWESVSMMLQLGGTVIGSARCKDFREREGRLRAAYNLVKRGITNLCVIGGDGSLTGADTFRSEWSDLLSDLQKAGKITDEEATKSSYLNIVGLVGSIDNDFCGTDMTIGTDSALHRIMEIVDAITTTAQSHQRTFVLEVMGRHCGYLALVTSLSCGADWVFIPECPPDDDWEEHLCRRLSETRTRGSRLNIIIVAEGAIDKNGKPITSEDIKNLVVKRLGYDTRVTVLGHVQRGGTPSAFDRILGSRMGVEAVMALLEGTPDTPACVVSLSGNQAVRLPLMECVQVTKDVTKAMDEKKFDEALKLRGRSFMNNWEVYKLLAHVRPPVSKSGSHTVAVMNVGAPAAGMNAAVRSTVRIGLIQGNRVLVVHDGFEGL
# Test description: in vitro inhibition of purified recombinant modified (cancer-specific) PFK-M fragments
pIC50: −log10 of the molar value.
Measured property: pIC50

GET /value?item= O=C(CSc1nnc(-c2ccc3c(c2)OCO3)o1)Nc1ccon1 &field=pIC50 returns ~4.82
